test system: Medulloblastoma cell; experiment: Cytotoxicity in Ptch-mutated in […] medulloblastoma cells expressing wildtype SMO by CellTiter-Glo analysis; assay type: functional, cell-based

{"columns": ["smiles_string", "IC50"],
 "data": [
  ["Cc1sc2c(c1C)C(c1ccc(Cl)cc1)=N[C@@H](CC(=O)OC(C)(C)C)c1nnc(C)n1-2", "~0.05 µM"]
]}
